Origin of values: patent US20210246166A1

# Tgt: T1, recombinant human MASP1 active protease (amino acids 297-699, C-terminal His Tag) (human, UniProt P48740 297-699)
# T1 sequence: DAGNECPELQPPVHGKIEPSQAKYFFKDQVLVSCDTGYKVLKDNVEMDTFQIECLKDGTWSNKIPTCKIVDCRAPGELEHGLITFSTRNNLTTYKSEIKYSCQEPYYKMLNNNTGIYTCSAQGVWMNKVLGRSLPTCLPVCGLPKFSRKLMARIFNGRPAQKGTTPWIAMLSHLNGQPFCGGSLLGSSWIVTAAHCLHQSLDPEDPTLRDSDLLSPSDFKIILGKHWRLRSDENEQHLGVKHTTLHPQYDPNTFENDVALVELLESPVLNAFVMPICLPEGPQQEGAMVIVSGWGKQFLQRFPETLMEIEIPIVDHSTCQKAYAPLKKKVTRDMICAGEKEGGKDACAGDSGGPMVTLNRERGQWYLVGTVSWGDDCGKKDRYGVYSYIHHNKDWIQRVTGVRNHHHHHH
# Protocol Notes: cell-based or functional assay
Bridge positions count the residues as written; N and C are the ends. Square brackets hold non-standard residues; d marks the D form. Ends that are not written are not given here. tBuAla = CC(C)(C)C[C@H](N)C(=O)O; Pen = CC(C)(S)[C@H](N)C(=O)O; Orn = NCCC[C@H](N)C(=O)O
Measurement Name: human MASP1 IC50 (nM)
Please respond with the number in nM and leave the unit unwritten.

Data point: [Orn]ICSRS[tBuAla]PPI[Pen]IPD-NH2 (disulfide 3-11; N-terminus assumed; SMILES CC[C@H](C)[C@H](NC(=O)[C@@H](N)CCCN)C(=O)N[C@H]1CSSC(C)(C)[C@@H](C(=O)N[C@H](C(=O)N2CCC[C@H]2C(=O)N[C@@H](CC(=O)O)C(N)=O)[C@@H](C)CC)NC(=O)[C@H]([C@@H](C)CC)NC(=O)[C@@H]2CCCN2C(=O)[C@@H]2CCCN2C(=O)[C@H](CC(C)(C)C)NC(=O)[C@H](CO)NC(=O)[C@H](CCCNC(=N)N)NC(=O)[C@H](CO)NC1=O) [(Orn)-IC+SRS-((tBu)A)-PPI-(Pen)+IPD-NH2] ; human MASP1 IC50 = 2
